# SYSTEM TESTED: T1, mouse VISTA recombinant protein (Sino Biological Inc., Cat. #51550-M08H), biotinylated (mouse, UniProt Q9D659 33-191, biotinylated using EZ-LINK NHS-PEG4 biotin)
# T1 construct: Bought protein; also called mouse VISTA protein
# T1 sequence (looked up): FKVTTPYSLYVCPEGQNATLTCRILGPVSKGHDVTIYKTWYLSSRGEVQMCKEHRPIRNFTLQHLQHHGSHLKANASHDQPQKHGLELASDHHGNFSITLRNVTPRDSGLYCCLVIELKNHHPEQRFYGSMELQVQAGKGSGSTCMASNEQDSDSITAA
# PROCEDURE DETAILS: BLI (Octet QKe), biotinylated VISTA on streptavidin sensors, antibody at 5 µg/ml

| BINDER | binding result |
| --- | --- |
| 9F9 humanized anti-VISTA antibody VH7/VL7 (antibody, V domains shown, also called 9E9 anti-VISTA VH7/VL7) VH: QVQFVQSGAEVKKPGASVKVSCKASGYTFTGYWMQWVKQAPGQRLEWIGAIYPGDGDTRYSQKFKGKVTLTADTSASTAYMELSSLRSEDTAVYYCARRDYGAWFAYWGQGTLVTVSS VL: DIKVTQSPSSLSASVGDRVTITCKASQDINSYLSWYQQKPGKAPKTLIYRANRLVDGVPSRFSGSGSGQEYTLTISSLQPEDFATYYCLQYDEFPYTFGQGTKVEIK | binds |
| 9F9 humanized anti-VISTA antibody VH14/VL15 (antibody, V domains shown, also called 9E9 anti-VISTA VH14/VL15) VH: QVQLVQSGAEVMKPGASVKISCKASGYTFTGYWMQWVRQRPGQGLEWIGAIYPGDGDTRYSQKFKGKATMTADTSISTAYMELSRLRSDDTAVYYCARRDYGAWFAYWGAGTTVTVSS VL: DIVMTQSPSSLSASVGERVTITCKASQDINSYLSWFQQKPGKAPKTLIYRANRLVDGVPSRFSGSGSGTDFTFTISSVQPEDLAIYYCLQYDEFPYTFGGGTKLEIK | binds |
| 9F9 humanized anti-VISTA antibody VH9/VL9 (antibody, V domains shown, also called 9E9 anti-VISTA VH9/VL9) VH: QVQFVQSGAEVKKPGSSVKVSCKASGYTFSGYWMQWVKQAPGQGLEWIGAIYPGDGDTRYSQKFKGKVTLTADESTSTAYMELSSLRSEDTAVYYCARRDYGAWFAYWGQGTLVTVSS VL: DIKVTQSPSSLSASVGDRVTITCKASQDINSYLSWYQQKPGKAPKTLIYRANRLVDGVPSRFSGSGSGQDYTFTISSLQPEDIATYYCLQYDEFPYTFGQGTKVEIK | binds |
